test system: Plasmodium falciparum; assay: Antimalarial activity against Plasmodium falciparum assessed as parasitic growth inhibition; assay type: functional, organism-based
readout: IC50 (µg/mL)
Report only the number, with the unit µg/mL understood.

Reported IC50 for `COc1cccc(NC(=S)NNC(=O)c2c(C)nc3ccccc3c2C)c1` : what is it? 0.1

Reported IC50 for `Cc1nc2ccccc2c(C)c1C(=O)NNC(=S)Nc1ccc(Cl)cc1` : what is it? 0.15

Reported IC50 for `CCNC(=S)NNC(=O)c1c(C)nc2ccccc2c1C` : what is it? 0.15

Reported IC50 for `Cc1nc2ccccc2c(C)c1C(=O)NNC(=S)NC(C)(C)C` : what is it? 0.25

Reported IC50 for `Cc1nc2ccccc2c(C)c1C(=O)NNC(=S)Nc1ccc([N+](=O)[O-])cc1` : what is it? 0.25

Reported IC50 for `Cc1nc2ccccc2c(C)c1C(=O)NNC(=S)Nc1ccc(F)cc1F` : what is it? 0.26

Reported IC50 for `Cc1nc2ccccc2c(C)c1C(=O)NNC(N)=S` : what is it? 0.19

Reported IC50 for `Cc1nc2ccccc2c(C)c1C(=O)NNC(=S)Nc1ccc(Cl)c(Cl)c1` : what is it? 0.19
